Target: HLA-A*0201 loaded with the Carcinoembryonic antigen (CEA)-derived … peptide (biotinylated on the C-terminal biotinylation tag)
Assay: SPR (Biacore), Example 4
quantity_measured: Kd

binder	experimental_value
SEQ ID NO 29 (receptor) MGHLPKPTLWAEPGSVITQGSPVTLRCQGGQETQEYRLYREKKTAPWITRIPQELVKKGQFPIPSITWEHAGRYRCYYGTQTAGRSESSDPLELVVTGAYIKPTLSAQPSPVVNSGGNVTLQCDSQVAFDGFILCKEGEDEHPQCLNSQPHARGSSRAIFSVGPVSPSRRWWYRCYAYDSNSPYEWSLPSDLLELLVL	≤ 1 µM
SEQ ID NO 61 (receptor) MGHLPKPTLWAEPGSVITLGQPVTLRCQGGQETQEYRLYREKKTAPWITRIPQELVKKGQFPIPSITWEHAGRYRCIGRSQTSQWSASSDPLELVVTGIYLAPTLSAQPSPVVNSGGNVTLQCDSQVAFDGFILCKEGEDEHPQCLNSQPHARGSSRAIFSVGPVSPSRRWWYRCYAYDSNSPYEWSLPSDLLELLVL	≤ 1 µM
SEQ ID NO 7 (receptor) MGHLPKPTLWAEPGSVITMDQPVTLRCQGGQETQEYRLYREKKTAPWITRIPQELVKKGQFPIPSITWEHAGRYRCYYGSDTAGRSESSDPLELVVTGVYIKPTLSAQPSPVVNSGGNVTLQCDSQVAFDGFILCKEGEDEHPQCLNSQPHARGSSRAIFSVGPVSPGRRWWYRCYAYDSNSPYEWSLPSDLLELLVL	≤ 1 µM
